- System: MCF7
- test-summary: Cytotoxicity against human MCF7 cells assessed as growth inhibition at 5 uM after 72 hrs by alamar blue assay
- Assay type: functional
Activity calls are given as the source filed them. The calls are words filed in the database; no cut-off is given here.
Bench note: report the call from active, inactive

COc1ccc(CN2CCc3c(c4cc(OC)c(OC)cc4c4cc(OC)c(OC)cc34)C2)cc1 | active
COc1cc2c3c(c4cc(OC)c(OC)cc4c2cc1OC)CN(Cc1ccccc1O)CC3 | active
COc1cc2c3c(c4cc(OC)c(OC)cc4c2cc1OC)CN(Cc1ccc(CO)o1)CC3 | active

Attention now turns to another entry.
Fill in: this test's call for COc1cc2c3c(c4cc(OC)c(OC)cc4c2cc1OC)CN(Cc1ccccc1)CC3 is ___
inactive

* * *

Form field: GI50 (one value per entry).
- Test system: MCF7
- test-summary: Growth inhibition in human MCF7 cells after 72 hrs by alamar blue assay
- Assay type: functional
- recorded-conditions: MCF7, 72 h

Recorded GI50, per entry:
COc1cc2c3c(c4cc(OC)c(OC)cc4c2cc1OC)CN(Cc1cccc(OC)c1O)CC3 | 3000 nM
COc1cc2c3c(c4cc(OC)c(OC)cc4c2cc1OC)CN1CCC[C@H]1C3 [(S)-TYLOPHORINE] | 42 nM
COc1cc2c3c(c4cc(OC)c(OC)cc4c2cc1OC)CN1CCC[C@@H]1C3 | 32 nM
COc1ccccc1CN1CCc2c(c3cc(OC)c(OC)cc3c3cc(OC)c(OC)cc23)C1 | 600 nM

Output GI50 of COc1cc2c3c(c4cc(OC)c(OC)cc4c2cc1OC)CN1CCCC1C3 (racemic) [(+/-)-TYLOPHORINE]
42 nM

* * *

- System: MCF7
- test-summary: Cytotoxicity against human MCF7 cells assessed as growth inhibition at 5 uM after 72 hrs by alamar blue assay
- Type: functional
Active and inactive are the calls of the source. The calls are words filed in the database; no cut-off is given here.
// one of 1 (active), 0 (inactive), no free text

COc1cc2c3c(c4cc(OC)c(OC)cc4c2cc1OC)CN(Cc1cc(C)on1)CC3 | 1
COc1cc2c3c(c4cc(OC)c(OC)cc4c2cc1OC)CN(Cc1ccc([N+](=O)[O-])cc1)CC3 | 1
COc1cc2c3c(c4cc(OC)c(OC)cc4c2cc1OC)CN(Cc1cccc(OC)c1O)CC3 | 1
COc1cc2c3c(c4cc(OC)c(OC)cc4c2cc1OC)CN(Cc1c(OC)cccc1OC)CC3 | 0

Next up:
Name the outcome recorded for COc1cc2c3c(c4cc(OC)c(OC)cc4c2cc1OC)CN(CCN)CC3 in the assay.
0
